OUTCOME_MEASURE: melting point (°C)
Give bare numbers, in °C.

[[record]]
molecule = "CSCCC1OC2(CCCCC2)NC1=O (stereo not shown)"
outcome_measure = "melting point"
unit_tag = "°C"
result_number = 109


Hey, can you go through the list below and give me melting point for every item?
1. CSCCC1OC(C)(C)NC1=O (stereo not shown)
2. CCC1(C)NC(=O)C(CCSC)O1 (stereo not shown)
3. CSCCC1OC(c2ccccc2)NC1=O (stereo not shown)

84
62
130

These data points were gathered from patent US8158186B2.
